- target.under.test: T1, Human DLL3 full-length protein on cells (human, UniProt Q9NYJ7 27-618)
- T1 construct: H1184 and DMS53 express DLL3 themselves; The cell line is named under assay; also called H1184 cells; DLL3/H82
- T1 sequence: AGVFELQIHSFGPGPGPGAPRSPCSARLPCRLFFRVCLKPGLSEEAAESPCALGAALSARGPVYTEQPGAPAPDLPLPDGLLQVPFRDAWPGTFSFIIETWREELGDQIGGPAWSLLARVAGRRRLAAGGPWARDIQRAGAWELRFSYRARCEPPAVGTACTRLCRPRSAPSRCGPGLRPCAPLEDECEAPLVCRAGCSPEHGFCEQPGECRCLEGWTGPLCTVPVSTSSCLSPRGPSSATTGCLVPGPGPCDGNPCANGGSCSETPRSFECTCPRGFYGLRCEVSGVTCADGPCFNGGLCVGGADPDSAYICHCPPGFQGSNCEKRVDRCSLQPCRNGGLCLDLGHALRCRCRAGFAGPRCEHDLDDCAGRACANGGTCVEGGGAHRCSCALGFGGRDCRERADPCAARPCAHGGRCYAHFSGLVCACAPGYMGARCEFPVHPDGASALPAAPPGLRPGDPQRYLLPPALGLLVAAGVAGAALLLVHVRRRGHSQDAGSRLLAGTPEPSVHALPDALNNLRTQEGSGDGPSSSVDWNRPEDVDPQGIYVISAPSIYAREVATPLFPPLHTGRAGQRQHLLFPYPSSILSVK
- procedure.details: FACS on DLL3/H82 cells
observed.property: Emax

Solved entries:
{"columns": ["binder", "value.reported"],
 "data": [
  ["hAb100L2H3 (antibody, human IgG1, kappa, V domains shown) VH: EVQLVESGGGLVKPGGSLRLSCAASGFTFSDSGMHWIRQAPGKGLEWVAYISSGSSTIHYADTVKGRFTISRDNAKNSLYLQMNSLRAEDTAVYYCASPLYHYGRSYNAVAYWGQGTTVTVSS VL: DIQMTQSPSSLSASVGDRVTITCHASQNINVWLSWYQQKPGKIPKLLIYKASDLHTGVPSRFSGSGSGTDFTLTISSLQPEDVATYYCQQGQSYPLTFGGGTKVEIKR", 14800],
  ["hAb100L1H3 (antibody, human IgG1, kappa, V domains shown) VH: EVQLVESGGGLVKPGGSLRLSCAASGFTFSDSGMHWIRQAPGKGLEWVAYISSGSSTIHYADTVKGRFTISRDNAKNSLYLQMNSLRAEDTAVYYCASPLYHYGRSYNAVAYWGQGTTVTVSS VL: DIQMTQSPSSLSASVGDRVTITCHASQNINVWLSWYQQKPGKVPKLLIYKASDLHTGVPSRFSGSGSGTDFTLTISSLQPEDVATYYCQQGQSYPLTFGGGTKVEIKR", 14900],
  ["Hu100 (antibody, human IgG1, kappa, V domains shown, also called hAb100L1H1) VH: EVQLVESGGGLVKPGGSLRLSCAASGFTFSDSGMHWIRQAPGKGLEWVSYISSGSSTIHYADTVKGRFTISRDNAKNSLYLQMNSLRAEDTAVYYCASPLYYYGRSYNAVAYWGQGTTVTVSS VL: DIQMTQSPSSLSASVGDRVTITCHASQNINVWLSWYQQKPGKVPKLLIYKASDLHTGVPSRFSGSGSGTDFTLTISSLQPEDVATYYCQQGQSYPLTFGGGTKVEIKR", 14300]
]}

Give measured Emax for every item shown.
1. hAb100L1H2 (antibody, human IgG1, kappa, V domains shown) VH: EVQLVESGGGLVKPGGSLRLSCAASGFTFSDSGMHWIRQAPGKGLEWVAYISSGSSTIHYADTVKGRFTISRDNAKNSLYLQMNSLRAEDTAVYYCASPLYYYGRSYNAVAYWGQGTTVTVSS VL: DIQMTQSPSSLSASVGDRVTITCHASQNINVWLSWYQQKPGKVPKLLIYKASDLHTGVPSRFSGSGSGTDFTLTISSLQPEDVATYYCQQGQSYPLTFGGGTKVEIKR
2. M100CHI (antibody, human IgG1, kappa, V domains shown, murine variable regions on human IgG1 / kappa constant regions; also called chimeric antibody of mAb100) VH: EVQLVESGGGLVKPGGSLKLSCAASGFTFSDSGMHWIRQAPEKGLEWVAYISSGSSTIHYADTVKGRFTISRDNAKNTLFLQMTSLRSEDTAMYYCASPLYYYGRSYNAVAYWGQGTSVTVSS VL: DIQMNQSPSSLSASLGDTITITCHASQNINVWLSWYQQKPGNIPKLLIYKASDLHTGVPSRFSGSGSGTGFTLTISSLQPEDIATYYCQQGQSYPLTFGGGTKLEIKR

1: 14800; 2: 13500

Below are 4 binders. Give each one its Emax.
1. hAb100L1H4 (antibody, human IgG1, kappa, V domains shown) VH: EVQLVESGGGLVKPGGSLRLSCAASGFTFSDSGMHWIRQAPGKGLEWVAYISSGSSTIHYADTVKGRFTISRDNAKNSLYLQMNSLRAEDTAVYYCASPLYYYGRSYNGVAYWGQGTTVTVSS VL: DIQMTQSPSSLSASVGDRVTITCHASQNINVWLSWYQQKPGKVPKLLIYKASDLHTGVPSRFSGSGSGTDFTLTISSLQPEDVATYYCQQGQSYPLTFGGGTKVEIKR
2. hAb100L2H4 (antibody, human IgG1, kappa, V domains shown) VH: EVQLVESGGGLVKPGGSLRLSCAASGFTFSDSGMHWIRQAPGKGLEWVAYISSGSSTIHYADTVKGRFTISRDNAKNSLYLQMNSLRAEDTAVYYCASPLYYYGRSYNGVAYWGQGTTVTVSS VL: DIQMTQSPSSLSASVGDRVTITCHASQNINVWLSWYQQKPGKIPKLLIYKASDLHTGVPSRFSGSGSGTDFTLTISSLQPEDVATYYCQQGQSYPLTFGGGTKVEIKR
3. hAb100L2H1 (antibody, human IgG1, kappa, V domains shown) VH: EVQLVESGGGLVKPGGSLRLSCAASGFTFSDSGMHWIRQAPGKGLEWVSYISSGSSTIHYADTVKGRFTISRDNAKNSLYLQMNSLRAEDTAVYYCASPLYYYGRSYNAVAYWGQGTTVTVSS VL: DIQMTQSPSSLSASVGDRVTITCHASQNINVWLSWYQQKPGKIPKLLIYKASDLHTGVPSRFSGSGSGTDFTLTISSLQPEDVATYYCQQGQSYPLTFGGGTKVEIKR
4. hAb100L2H2 (antibody, human IgG1, kappa, V domains shown) VH: EVQLVESGGGLVKPGGSLRLSCAASGFTFSDSGMHWIRQAPGKGLEWVAYISSGSSTIHYADTVKGRFTISRDNAKNSLYLQMNSLRAEDTAVYYCASPLYYYGRSYNAVAYWGQGTTVTVSS VL: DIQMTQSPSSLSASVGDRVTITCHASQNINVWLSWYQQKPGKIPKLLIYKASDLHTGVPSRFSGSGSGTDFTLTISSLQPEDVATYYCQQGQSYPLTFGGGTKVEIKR

[14900, 13200, 14400, 14800]
